So I've got a bunch of variants here, and I need their pKd values.
B1: NELF-E aptamer (parent)
chain: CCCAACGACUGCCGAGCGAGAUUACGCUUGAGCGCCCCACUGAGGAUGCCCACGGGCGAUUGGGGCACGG

# Variants of: B1
# measurement description: HiTS-RAP
# stated conditions: with NELF-E (Drosophila)
Formally, pKd is defined as -log10 of the concentration c, with c in mol/L.

So what does the record say about pKd for CCCAACGACUGCCGAGCGAGAUUACGCUUGAGCGCCCCACGGAGGAUGCCCACGGGUGAUUGGGGCACGG [U41G C57U] ?
8.16

What about this variant? CCCAACGACUUCCGAGCGAGAUUACGCUUGAGCGCCCCACUGAGGAUGCCCACGGGCGAUUGGGGCUCGG [G11U A67U]
8.04

What about this variant? CCCAACGGCUGCCGAGCGAGAUUACGCUAGAGCGCCCCACUGAGGAUGCCCACGGGCGAUUGGGGCACGG [A8G U29A]
8.10

What about this variant? CCCAACGAGUGCCGAGCGAGAUUACGCUUGAGCGCCCCACUGAGGAUGUCCACGGGCGAUUGGGGCACGG [C9G C49U]
7.64

What about this variant? CCCAAGGACUGCCGAGCGAGAUUACGCUUGAGCGCCCCACUGAGGAUGCCCACGGGCGAUUAGGGCACGG [C6G G62A]
7.66

What about this variant? CCCAACGACUGCCGAGCGGGAUUACGCUUGAGCGCCCCACUGAGGAUGCCCACGGGCGAUAGGGGCACGG [A19G U61A]
7.61

What about this variant? CCCAACGACUGCGGAGCGAGAUUACGCUUGAGCGCCCCACUGAGGAUGCCCACGGGCGAUUGGAGCACGG [C13G G64A]
8.17

What about this variant? CCCAACGACUGCCGAGCGAGAUGACGCUUGAGGGCCCCACUGAGGAUGCCCACGGGCGAUUGGGGCACGG [U23G C33G]
8.09

What about this variant? CCCAACGAUUGCCGAGCGAGAUUACGCUGGAGCGCCCCACUGAGGAUGCCCACGGGCGAUUGGGGCACGG [C9U U29G]
8.28

What about this variant? CCCAACGACGGCCGAGCGAGAUUACGCUUGAGAGCCCCACUGAGGAUGCCCACGGGCGAUUGGGGCACGG [U10G C33A]
8.24

What about this variant? CCCAACGACUGCCGAUCGAGAUUACGCUUGAGCGCCCCACUGAGGAUGCCCACGUGCGAUUGGGGCACGG [G16U G55U]
8.06

What about this variant? CCCAAAGACUGCCGAGGGAGAUUACGCUUGAGCGCCCCACUGAGGAUGCCCACGGGCGAUUGGGGCACGG [C6A C17G]
8.10

What about this variant? CCCGACGACUGCCGAGCGAGAUUACGGUUGAGCGCCCCACUGAGGAUGCCCACGGGCGAUUGGGGCACGG [A4G C27G]
8.24

What about this variant? CCCAACGACUGCCGAGCGAGAUGACGCUUGAGCGCCCCACGGAGGAUGCCCACGGGCGAUUGGGGCACGG [U23G U41G]
8.26

What about this variant? CCCAGCGACUGCCGAGCGAGAUUACGCUUGAGCGCCCCACUGAGGAUGCCCACGGGCGUUUGGGGCACGG [A5G A59U]
6.95

What about this variant? CCCGACGACUGCCGAGCGAGAUUACGCUUGAGCGCCCCACUGAGGAUGCCUACGGGCGAUUGGGGCACGG [A4G C51U]
8.12

What about this variant? CCCAACGACUGCGGAGUGAGAUUACGCUUGAGCGCCCCACUGAGGAUGCCCACGGGCGAUUGGGGCACGG [C13G C17U]
8.27

What about this variant? CCCAACGAGUGCCGAGCGAGAUUACGCUUGAGCGCCCCACUGAGGAUGCUCACGGGCGAUUGGGGCACGG [C9G C50U]
7.87

What about this variant? CCCAACGACUGCCGAGCGAGAUUACGCUUGAGCGACCCACUGAGGAUGCCCACGGGCGAUUGGGGCACGG [C35A]
8.18

What about this variant? CCCAACUACUGCCGAGCGAGAUUACGCUUGAGCGCCCCACUGAGGAUGCCCUCGGGCGAUUGGGGCACGG [G7U A52U]
7.71

What about this variant? CCCUACGACUGCCGAGCGAGAUUACGCUUGAGCGCCCCACUGAGGAAGCCCACGGGCGAUUGGGGCACGG [A4U U47A]
7.90

What about this variant? CCCAACGACUGCCGAUCGAGAUUACGCUUGAGCGCCCCACUGAGGAUGCCCACGGGUGAUUGGGGCACGG [G16U C57U]
8.09

What about this variant? CCCAACGACUGCCGAGCGAGAUUACGCUUGAGCGCCCCCCUGAGGAUGCCCACGGGCGAUUGGGGCACGG [A39C]
7.69

What about this variant? CCCAACGACUGCCGAGCGAGAGUACGCUUGAGCGACCCACUGAGGAUGCCCACGGGCGAUUGGGGCACGG [U22G C35A]
8.14

What about this variant? CCCAACGACUGCCGAUCGAGAUUACGCUUGAGCGCCCCACCGAGGAUGCCCACGGGCGAUUGGGGCACGG [G16U U41C]
7.12

What about this variant? CCCAACGAGUGCCGAGCGAGAUUACGCUUGAGCGCCCCACUGAGGAUGCCCACGGGCGAUUAGGGCACGG [C9G G62A]
7.57

What about this variant? CCCAACGAGUGCCGAGCGAGAUUACUCUUGAGCGCCCCACUGAGGAUGCCCACGGGCGAUUGGGGCACGG [C9G G26U]
8.09

What about this variant? CCCAACUACUGCCGAGCGGGAUUACGCUUGAGCGCCCCACUGAGGAUGCCCACGGGCGAUUGGGGCACGG [G7U A19G]
8.21

What about this variant? CCCAACGACGGCCGAGCGAGAUUACGCUUGAGCGCCCGACUGAGGAUGCCCACGGGCGAUUGGGGCACGG [U10G C38G]
8.15

What about this variant? CCCAACGACUGCGGAGCGAGAUUACGCUUGAGCGCCCCACUGAGGAUGCCCACGGGCGAUUGGGGCUCGG [C13G A67U]
8.12

What about this variant? CCCGACGACUGCCGAGCGAGAUUACGCUUGUGCGCCCCACUGAGGAUGCCCACGGGCGAUUGGGGCACGG [A4G A31U]
8.18

What about this variant? CCCAACGACUGCCGAGCGAGAUUACGCUGGAGCGCCCCACUGAGGAUGCCCACGGGCUAUUGGGGCACGG [U29G G58U]
8.09

What about this variant? CCCAACGACUGCCGAUCGAGAUUACGCUUGGGCGCCCCACUGAGGAUGCCCACGGGCGAUUGGGGCACGG [G16U A31G]
8.08

What about this variant? CCCAACGACUGCCGAGCGAGAUUGCGCUUGGGCGCCCCACUGAGGAUGCCCACGGGCGAUUGGGGCACGG [A24G A31G]
8.18

What about this variant? CCCAAUGACUGCCGAGCGAGAUUACACUUGAGCGCCCCACUGAGGAUGCCCACGGGCGAUUGGGGCACGG [C6U G26A]
8.39

What about this variant? CCCAACGACUGCGGAGCGAGAUUACGCUUGAGCGCCCCACUGAGGAUGCCCACGGGCGACUGGGGCACGG [C13G U60C]
8.08

What about this variant? CCCAACGACUGCCGAGCGGGAUUACGCUUGAGCGCCCCACUGAGGAUGCCCACGGGCGAUUGGGUCACGG [A19G G65U]
8.13

What about this variant? CCCAGCGACUGCCGAGCGAGAUUACGCUUGAGCGCCCCCCUGAGGAUGCCCACGGGCGAUUGGGGCACGG [A5G A39C]
7.65

What about this variant? CCCAACGUCUGCCGAGCGAGAUUACGCUUGAGCGCCCCACUGAGGAUGCCCACGGGCGAUUGGAGCACGG [A8U G64A]
8.08

What about this variant? CCCAACGUCUGCCUAGCGAGAUUACGCUUGAGCGCCCCACUGAGGAUGCCCACGGGCGAUUGGGGCACGG [A8U G14U]
8.17

What about this variant? CCCCACGACUGCCGAGCGAGAUUGCGCUUGAGCGCCCCACUGAGGAUGCCCACGGGCGAUUGGGGCACGG [A4C A24G]
8.15

What about this variant? CCCAGCGACUGCCGAGCGAGAUUACGCUUGAGCGCCCCACUGAGGAUGCCCACGUGCGAUUGGGGCACGG [A5G G55U]
8.11

What about this variant? CCCAACGACGGCCGAGCGAGAUUACGCUUGAGCGCCCCACUGAGGAUGCGCACGGGCGAUUGGGGCACGG [U10G C50G]
8.14

What about this variant? CCCAACGACGGCCGAGCGAGAUUACGCUUGAGCGCGCCACUGAGGAUGCCCACGGGCGAUUGGGGCACGG [U10G C36G]
8.18

What about this variant? CCCAACUACUGCCGAGCUAGAUUACGCUUGAGCGCCCCACUGAGGAUGCCCACGGGCGAUUGGGGCACGG [G7U G18U]
8.17

What about this variant? CCCAACGACUGCCGAGCGAGAUGACGCUUGAGCGCGCCACUGAGGAUGCCCACGGGCGAUUGGGGCACGG [U23G C36G]
8.25
